// reported HPLC purity Day 10 (%) per item
# assayRemarks: Stability investigation of the crystalline forms (HPLC purity, samples placed open and flat)
# Assay type: physicochemical
# statedConditions: light (4500 Lux), Day 10

compound: COC(=O)[C@H](c1ccccc1Cl)N1CC[C@@H]2SC(=O)C=C2C1 [Example 6]
HPLC purity Day 10 (%): 99.90
--
compound: COC(=O)[C@H](c1ccccc1Cl)N1CC[C@@H]2SC(=O)C=C2C1 [Example 7]
HPLC purity Day 10 (%): 99.87
--
compound: COC(=O)[C@H](c1ccccc1Cl)N1CC[C@@H]2SC(=O)C=C2C1 [Example 2]
HPLC purity Day 10 (%): 99.92
--
compound: COC(=O)[C@H](c1ccccc1Cl)N1CC[C@@H]2SC(=O)C=C2C1 (racemic) [Comparative preparation example 1, reference compound]
HPLC purity Day 10 (%): 96.75
--
compound: COC(=O)[C@H](c1ccccc1Cl)N1CC[C@@H]2SC(=O)C=C2C1 (racemic) [Comparative preparation example 3, reference compound]
HPLC purity Day 10 (%): 97.65
--
compound: COC(=O)[C@H](c1ccccc1Cl)N1CC[C@@H]2SC(=O)C=C2C1 [Example 4]
HPLC purity Day 10 (%): 99.89
